molecular target: human TLR8 (Homo sapiens); construct: expressed in transfected cells; host or cells: HEK-Blue Null1 cells, lentiviral infection; test: SEAP reporter assay in HEK-Blue TLR8 cells, R848-induced TLR8 signaling; assay type: cell-based; details: 1(2H)-phthalazinone and quinoline derivatives in HEK-Blue hTLR8 cells
Sequence (Q9NR97 27-1041): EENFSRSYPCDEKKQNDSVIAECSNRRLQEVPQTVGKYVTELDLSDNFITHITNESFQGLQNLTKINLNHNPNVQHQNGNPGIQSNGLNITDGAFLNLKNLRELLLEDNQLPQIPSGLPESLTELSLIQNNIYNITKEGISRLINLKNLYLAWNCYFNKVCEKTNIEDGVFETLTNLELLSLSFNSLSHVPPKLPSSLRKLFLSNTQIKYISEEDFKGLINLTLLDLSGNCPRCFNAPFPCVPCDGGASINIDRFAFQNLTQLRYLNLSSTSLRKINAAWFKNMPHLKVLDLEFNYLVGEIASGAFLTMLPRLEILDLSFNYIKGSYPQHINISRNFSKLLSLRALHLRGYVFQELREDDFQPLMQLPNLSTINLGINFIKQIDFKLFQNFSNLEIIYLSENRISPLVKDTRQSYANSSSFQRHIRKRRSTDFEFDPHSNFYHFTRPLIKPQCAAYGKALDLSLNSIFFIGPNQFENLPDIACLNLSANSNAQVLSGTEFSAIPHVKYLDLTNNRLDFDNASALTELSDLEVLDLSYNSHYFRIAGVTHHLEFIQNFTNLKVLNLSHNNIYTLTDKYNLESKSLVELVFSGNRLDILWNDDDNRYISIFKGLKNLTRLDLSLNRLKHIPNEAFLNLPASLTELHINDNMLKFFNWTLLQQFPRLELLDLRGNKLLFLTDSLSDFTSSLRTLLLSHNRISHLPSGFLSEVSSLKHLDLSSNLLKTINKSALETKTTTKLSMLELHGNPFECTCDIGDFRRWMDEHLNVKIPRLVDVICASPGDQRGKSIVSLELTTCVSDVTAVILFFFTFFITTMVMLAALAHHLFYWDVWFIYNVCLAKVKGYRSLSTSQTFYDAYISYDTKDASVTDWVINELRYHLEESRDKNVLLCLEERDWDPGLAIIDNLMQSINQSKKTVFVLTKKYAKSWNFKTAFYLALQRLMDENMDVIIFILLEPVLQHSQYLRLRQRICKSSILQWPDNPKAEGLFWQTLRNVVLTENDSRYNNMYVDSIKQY
Each entry below lists one item and its recorded IC50 value.

[
  {
    "Compound": "Cc1cc(-c2nn(C)c(=O)c3ccccc23)cc(C)c1O",
    "IC50": "0.17 µM"
  },
  {
    "Compound": "Cc1cc(-c2ccc(N)c3ccccc23)ccc1O",
    "IC50": "2.72 µM"
  },
  {
    "Compound": "O=c1[nH]nc(-c2ccc(O)c3ccccc23)c2ccccc12",
    "IC50": "> 20 µM"
  },
  {
    "Compound": "O=c1[nH]nc(-c2ccc(O)c(C(F)(F)F)c2)c2ccccc12",
    "IC50": "> 20 µM"
  },
  {
    "Compound": "CCc1cc(-c2n[nH]c(=O)c3ccccc23)ccc1O",
    "IC50": "2.73 µM"
  },
  {
    "Compound": "COc1ccc(-c2ccc(O)c(C)c2)c2ccccc12",
    "IC50": "7.03 µM"
  },
  {
    "Compound": "COc1ccc(-c2n[nH]c(=O)c3ccccc23)cc1C(F)(F)F",
    "IC50": "> 20 µM"
  },
  {
    "Compound": "Cc1cc(-c2n[nH]c(=O)c3cccc(C)c23)ccc1O",
    "IC50": "> 20 µM"
  },
  {
    "Compound": "COc1ccc(-c2n[nH]c(=O)c3ccccc23)cc1",
    "IC50": "> 20 µM"
  },
  {
    "Compound": "CCn1nc(-c2ccc(O)c(C)c2)c2ccccc2c1=O",
    "IC50": "> 20 µM"
  },
  {
    "Compound": "CC(C)c1cc(-c2n[nH]c(=O)c3ccccc23)cc(C(C)C)c1O",
    "IC50": "> 20 µM"
  },
  {
    "Compound": "Cc1cc(-c2n[nH]c(=O)c3ccccc23)cc(C)c1O",
    "IC50": "3.91 µM"
  },
  {
    "Compound": "CC(=O)Oc1ccc(-c2n[nH]c(=O)c3ccccc23)cc1C",
    "IC50": "3.77 µM"
  },
  {
    "Compound": "Cc1cc(-c2nn(C)c(=O)c3ccccc23)ccc1O",
    "IC50": "0.33 µM"
  },
  {
    "Compound": "CC(=O)Oc1c(C)cc(-c2n[nH]c(=O)c3ccccc23)cc1C",
    "IC50": "4.76 µM"
  },
  {
    "Compound": "COc1ccc(-c2nn(C)c(=O)c3ccccc23)cc1",
    "IC50": "> 20 µM"
  },
  {
    "Compound": "Cc1cc(-c2n[nH]c(=O)c3ccccc23)ccc1O",
    "IC50": "1.3 µM"
  },
  {
    "Compound": "Cc1cc(-c2ccnc3[nH]ccc23)ccc1O",
    "IC50": "0.09 µM"
  },
  {
    "Compound": "Cc1cc(-c2n[nH]c(=O)c3ccccc23)cc(C)c1N",
    "IC50": "> 20 µM"
  },
  {
    "Compound": "Cc1cc(-c2n[nH]c(=O)c3cccnc23)cc(C)c1O",
    "IC50": "13 µM"
  },
  {
    "Compound": "Cc1cc(-c2n[nH]c(=O)c3ccccc23)ccc1C(=O)O",
    "IC50": "> 20 µM"
  },
  {
    "Compound": "Cc1cc(-c2ncnc3ccccc23)ccc1O [Compound 38, 4-(3-Methyl-4-Hydroxyphenyl)quinazoline]",
    "IC50": "0.35 µM"
  },
  {
    "Compound": "O=c1[nH]nc(-c2ccc(O)cc2)c2ccccc12 [Compound 19, 4-(4-Hydroxyphenyl)phthalazin-1(2H)-one]",
    "IC50": "> 20 µM"
  },
  {
    "Compound": "Cc1cc(-c2cccc3ccccc23)ccc1O [Compound 43, 1-(4-Hydroxy-3-methylphenyl)naphthalene]",
    "IC50": "> 20 µM"
  },
  {
    "Compound": "Cc1cc(-c2cccc3ccccc23)cc(C)c1O",
    "IC50": "1.22 µM"
  },
  {
    "Compound": "COC(=O)c1ccc(-c2n[nH]c(=O)c3ccccc23)cc1C",
    "IC50": "8.51 µM"
  },
  {
    "Compound": "Cn1nc(-c2ccccc2)c2ccccc2c1=O",
    "IC50": "> 20 µM"
  },
  {
    "Compound": "N#Cc1cc(-c2n[nH]c(=O)c3ccccc23)ccc1O",
    "IC50": "> 20 µM"
  },
  {
    "Compound": "Cc1cc(-c2nncc3ccccc23)cc(C)c1O",
    "IC50": "11.4 µM"
  },
  {
    "Compound": "Cc1cc(-c2nncc3ccccc23)ccc1O [Compound 41, 1-(3-Methyl-4-Hydroxyphenyl)-phthalazine]",
    "IC50": "6.75 µM"
  },
  {
    "Compound": "Cc1cc(-c2ccc(O)c3ccccc23)ccc1O [Compound 2, 4-(4-Hydroxy-3-methylphenyl)-1-naphthol]",
    "IC50": "0.48 µM"
  },
  {
    "Compound": "Cc1cc(-c2n[nH]c(=O)c3ccccc23)c(C)c(C)c1O",
    "IC50": "> 20 µM"
  },
  {
    "Compound": "Cc1cc(-c2n[nH]c(=O)c3ccccc23)cc(C)c1C(=O)O",
    "IC50": "> 20 µM"
  },
  {
    "Compound": "Cc1cc(-c2cnnc3ccccc23)ccc1O [Compound 45, 4-(4-Hydroxy-3-methylphenyl)-cinnolin]",
    "IC50": "0.34 µM"
  },
  {
    "Compound": "Cc1cc(-c2cn(C(=O)OC(C)(C)C)c3ccccc23)ccc1O",
    "IC50": "> 20 µM"
  },
  {
    "Compound": "COc1ccc(-c2n[nH]c(=O)c3ccccc23)cc1[N+](=O)[O-]",
    "IC50": "> 20 µM"
  }
]
